Each recorded value in this set is attributed to the supplement of paper PMC9233669.

# Tested on: biotinyl-Trp-oxazolone
# ASSAY_PROTOCOL: self-aminoacylation, catalytic enhancement (BWO) (fold over background); higher = more active; k-Seq, kA / k0A0; sequences stand for … in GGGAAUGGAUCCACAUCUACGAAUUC…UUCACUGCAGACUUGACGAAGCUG
Variants at the floor of the assay were thinned out.
We use 2 as the dividing line for self-aminoacylation: on or above the line is 1, below is 0.

These solved cases illustrate the format of a correct answer.
{"PRIMARY_SEQUENCE": "AAGUUUGCUGAUAGUCGCGAG [Fam3.1 aminoacylation ribozyme variant]", "CLASS_NAME": 0}
{"PRIMARY_SEQUENCE": "UCAGACUUCAAGCAAUCGGUC [Fam1B.1 aminoacylation ribozyme variant]", "CLASS_NAME": 1}
{"PRIMARY_SEQUENCE": "AUUAACCUAGGUCAUCGGGUG [Fam2.2 aminoacylation ribozyme variant]", "CLASS_NAME": 1}
{"PRIMARY_SEQUENCE": "AUUCACCUAUAUCAUCGGGUG [Fam2.2 aminoacylation ribozyme variant]", "CLASS_NAME": 1}
{"PRIMARY_SEQUENCE": "AGUACCCAGGUCAUCGAGUGA [Fam2.1 aminoacylation ribozyme variant]", "CLASS_NAME": 1}

Q. Exam item: decide whether the reported self-aminoacylation for ACACACUUCAAGCAAUCGGGC [Fam1B.1 aminoacylation ribozyme variant] is at least 2.
A. 1

Q. Exam item: decide whether the reported self-aminoacylation for CUACUCCAACCAAUCGGUCUG [Fam1A.1 aminoacylation ribozyme variant] is at least 2.
A. 0

====

# Test system: biotinyl-Ile-oxazolone
# ASSAY_PROTOCOL: self-aminoacylation, catalytic enhancement (BIO) (fold over background); higher = more active; k-Seq, kA / k0A0; sequences stand for … in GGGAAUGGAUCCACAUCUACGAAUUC…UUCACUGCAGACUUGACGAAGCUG
Variants at the floor of the assay were thinned out.
QUANTITY: self-aminoacylation
Lab note: write the figure by itself, no unit.

{"PRIMARY_SEQUENCE": "AAUACCAUGGUCAUCGAGUGA [Fam2.1 aminoacylation ribozyme variant]", "self-aminoacylation": 3.19}

Q. Requested read-out self-aminoacylation, target or system biotinyl-Ile-oxazolone, entry CUUCACCUAUGUCAUCGGGUG [Fam2.2 aminoacylation ribozyme variant]
A. 2.35

Q. Requested read-out self-aminoacylation, target or system biotinyl-Ile-oxazolone, entry AUUCACCUUGGUUAUCGGGUG [Fam2.2 aminoacylation ribozyme variant]
A. 3.26

Q. Requested read-out self-aminoacylation, target or system biotinyl-Ile-oxazolone, entry UUUCACCUAGGUCAUCUGGUG [Fam2.2 aminoacylation ribozyme variant]
A. 1.76

Q. Requested read-out self-aminoacylation, target or system biotinyl-Ile-oxazolone, entry AUUCCCCUAGGUUAUCGGGUG [Fam2.2 aminoacylation ribozyme variant]
A. 12.9

Q. Requested read-out self-aminoacylation, target or system biotinyl-Ile-oxazolone, entry AAGUUUGUUAAUAUUCGCAAG [Fam3.1 aminoacylation ribozyme variant]
A. 1.55

====

Below, each entry is listed with its recorded self-aminoacylation.
# System: biotinyl-Leu-oxazolone
# ASSAY_PROTOCOL: self-aminoacylation, catalytic enhancement (BLO) (fold over background); higher = more active; k-Seq, kA / k0A0; sequences stand for … in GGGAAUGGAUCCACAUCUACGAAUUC…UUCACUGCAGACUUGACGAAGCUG
Fewer inactive variants are shown than the library holds.
Lab note: write the figure by itself, no unit.

{"PRIMARY_SEQUENCE": "AUUCUCCUAGCUCAUCGGGUG [Fam2.2 aminoacylation ribozyme variant]", "ASSAY_SYSTEM": "biotinyl-Leu-oxazolone", "self-aminoacylation": 3.79}

Q. I am curious: what self-aminoacylation value has been reported for CUUGUUCAAACAAUCGGUCUG [Fam1A.1 aminoacylation ribozyme variant] ?
A. 1.18

Q. I am curious: what self-aminoacylation value has been reported for CCACACUCCAAGUAAUCGGUC [Fam1B.1 aminoacylation ribozyme variant] ?
A. 0.919

Q. I am curious: what self-aminoacylation value has been reported for CUACUUCAAACACGCGGUCUG [Fam1A.1 aminoacylation ribozyme variant] ?
A. 1.42

Q. I am curious: what self-aminoacylation value has been reported for ACGUUUGCUAAUAGUUGCAAG [Fam3.1 aminoacylation ribozyme variant] ?
A. 1.33

Q. I am curious: what self-aminoacylation value has been reported for AAGUGUGCUAAUAUUCGCAAG [Fam3.1 aminoacylation ribozyme variant] ?
A. 1.51
